System: F380Y
Test: modulators of BK channel variants, profiling panel, selectivity assay, cell-based, U2OS BacMam, thallium flux, beta subunits (AID 1259406);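 also: initial slope of Thallos dye fluorescence rise after thallium is added; log ratio against the mean of 0.3% DMSO vehicle wells on the same plate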
Conditions: at 30 µM
Measured endpoint: log fold change Tl+ flux
Answers are plain numbers.

{"Molecule": "O=S(=O)(c1ccc(N2CCOCC2)nc1)N1CCN(c2c(Cl)cncc2Cl)CC1", "Value reported": 0.0448}

Give measured log fold change Tl+ flux for every item shown.
1. CS(=O)(=O)NNc1c(Cl)cc(Cl)cc1Cl
2. CCC(CO)NCCNC(CC)CO (stereo unspecified)
3. CC1CNc2c(cccc2S(=O)(=O)N[C@@H](CCCN=C(N)N)C(=O)N2CC[C@@H](C)C[C@@H]2C(=O)O)C1 (stereo partly specified)

Result:
[0.00053, -0.0102, -0.00418]

Need log fold change Tl+ flux for each of these molecules.
1. Cc1ncc(CSc2nc(C(C)(C)C)cs2)c(CO)c1O
2. Cc1ccc(S(=O)(=O)c2ncsc2SCc2ccc(Cl)cc2Cl)cc1

Result:
-0.0128
0.0356

###

Test system: F380Y
Assay: modulators of BK channel variants, profiling panel, selectivity assay, cell-based, U2OS BacMam, thallium flux, beta subunits (AID 1259406);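 also: initial slope of Thallos dye fluorescence rise after thallium is added; log ratio against the mean of 0.3% DMSO vehicle wells on the same plate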
Details: at 30 µM
Measured endpoint: log fold change Tl+ flux
One number for each entry.

{"Compound": "CNC(=O)Oc1ccc2c(c1)[C@]1(C)CCN(C)C1N2C (stereo not given in full)", "log fold change Tl+ flux": -0.0388}
{"Compound": "O=C(Nc1c(S(=O)(=O)c2ccccc2)csc1Br)c1ccccc1Cl", "log fold change Tl+ flux": -0.0373}
{"Compound": "Cc1nnc(SCC2=C(C(=O)O)N3C(=O)C(NC(=O)Cn4cnnn4)C3SC2)s1 (stereo not given)", "log fold change Tl+ flux": -0.00444}
{"Compound": "CCOC(=O)c1nn(-c2ccc(C(C)(C)C)cc2)c(=O)c(C#N)c1C", "log fold change Tl+ flux": -0.364}

Now look at this one.
Given item CCOC(=O)CCC(=O)OC1C(OC2C(C)C(OC3CC(C)(OC)C(O)C(C)O3)C(C)C(=O)OC(CC)C(C)(O)C(O)C(C)C(=O)C(C)CC2(C)O)OC(C)CC1N(C)C (stereo not given) , the value recorded as its log fold change Tl+ flux is -0.00772

###

Target: Calcium-dependent protein kinase 1 (Plasmodium falciparum (isolate 3D7))
Assay: PfCDPK1 kinase inhibitors, biochemical, TCAMS library (AID 1159585);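 also: inhibitors leave more ATP so luminescence rises with inhibition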
Conditions: recombinant PfCDPK1, Kinase-Glo ATP depletion luminescence
Entries with a potency or affinity are not part of this list. Calls of active or inactive are those of the source. Cut-off not given; nearly all actives show IC50 up to about 0.98 µM.
Measured endpoint: outcome

Worked cases, outcome given:
{"Compound": "CC1(C)N=C(N)N=C(N)N1c1cccc(Cl)c1", "outcome": "inactive"}
{"Compound": "Cn1nc(C(F)(F)F)c(-c2ccc(F)cc2)c1NC(=O)Nc1ccccc1", "outcome": "inactive"}
{"Compound": "COc1ccc(-c2cnc3ccc(NCc4ccc(S(N)(=O)=O)cc4)nn23)cn1", "outcome": "inactive"}
{"Compound": "O=C(C1CCN(C(c2ccccc2)c2ccc(Cl)c(Cl)c2)CC1)N1CC=CC1 (stereo not given)", "outcome": "inactive"}
{"Compound": "Cc1[nH]c(C)c(-c2ccc(Oc3ccc(Cl)c(Cl)c3)cc2)c(=O)c1Br", "outcome": "inactive"}
{"Compound": "Cc1ccc(S(=O)(=O)n2nccc2-c2c(-c3ccc(Cl)cc3)noc2C)cc1", "outcome": "inactive"}
{"Compound": "Nc1nc(N)c2cc(Cc3ccccc3Cl)cnc2n1", "outcome": "inactive"}
{"Compound": "CCCCCCN1CCC(NCc2ccc(OCCN3CCCC3)cc2)CC1", "outcome": "inactive"}

Hey, quick one: what's outcome for each of these?
1. CN1CCC(NC(=O)c2cccc(Nc3cc(Nc4cccc(Br)c4)ncn3)c2)CC1
2. Cc1nc2ccccc2n1C1C[C@H]2CC[C@@H](C1)N2CCC1(c2ccccc2)CCN(C(=O)Nc2ccc(C(F)(F)F)cc2)CC1 (stereo not given in full)
3. COc1c(C2CCN(CCCCNC(=O)C=Cc3ccccc3C(F)(F)F)CC2)ccc2c1CCCC2
4. Cc1sc2nc(CN3CCCC3)nc(-n3c(NCCO)nc4ccccc43)c2c1C
5. CC(NC(=O)c1ccc(O)c(-c2ccc(Cl)c(Cl)c2)c1)C(=O)NCCN1CCCCC1 (stereo not given)
6. Cc1ccccc1Cc1cccc(/N=C(\N)Nc2ccc(Cl)cc2)n1

Result:
1. inactive
2. inactive
3. inactive
4. inactive
5. inactive
6. inactive

Items follow; give outcome for each.
1. O=C(c1ccco1)N1CCN(c2ccc([N+](=O)[O-])c(NC3CC3)c2)CC1
2. O=C(Nc1cccc(CN2CCCN(Cc3ccccc3)CC2)c1)c1cc2ccccc2s1
3. Fc1ccc2nc(-c3ccc(-c4ccc(CN5CCN(CCN6CCOCC6)CC5)cc4)s3)[nH]c2c1

Result:
1: inactive; 2: inactive; 3: inactive

Hey, quick one: what's outcome for each of these?
1. CCOc1cc(C)ccc1C1CCN(CCCCNC(=O)c2cnc(-c3ccc(C(F)(F)F)cc3)[nH]2)CC1
2. Cc1cc(C(=O)Nc2ccc3c(ccn3C3CCCN(Cc4ccc(C(F)(F)F)cc4F)CC3)c2)no1 (stereo not given)
3. c1ccc2c(c1)cc(CNCCCN1CCN(CCCNCc3cc4ccccc4c4ccccc34)CC1)c1ccccc12

Result:
1. inactive
2. inactive
3. inactive

Values from PubChem BioAssay
